Where these numbers come from: PubChem BioAssay AID588466

SYSTEM UNDER TEST: Desmoglein-3 (Homo sapiens) (UniProt P32926)
Sequence (P32926 whole entry, looked up): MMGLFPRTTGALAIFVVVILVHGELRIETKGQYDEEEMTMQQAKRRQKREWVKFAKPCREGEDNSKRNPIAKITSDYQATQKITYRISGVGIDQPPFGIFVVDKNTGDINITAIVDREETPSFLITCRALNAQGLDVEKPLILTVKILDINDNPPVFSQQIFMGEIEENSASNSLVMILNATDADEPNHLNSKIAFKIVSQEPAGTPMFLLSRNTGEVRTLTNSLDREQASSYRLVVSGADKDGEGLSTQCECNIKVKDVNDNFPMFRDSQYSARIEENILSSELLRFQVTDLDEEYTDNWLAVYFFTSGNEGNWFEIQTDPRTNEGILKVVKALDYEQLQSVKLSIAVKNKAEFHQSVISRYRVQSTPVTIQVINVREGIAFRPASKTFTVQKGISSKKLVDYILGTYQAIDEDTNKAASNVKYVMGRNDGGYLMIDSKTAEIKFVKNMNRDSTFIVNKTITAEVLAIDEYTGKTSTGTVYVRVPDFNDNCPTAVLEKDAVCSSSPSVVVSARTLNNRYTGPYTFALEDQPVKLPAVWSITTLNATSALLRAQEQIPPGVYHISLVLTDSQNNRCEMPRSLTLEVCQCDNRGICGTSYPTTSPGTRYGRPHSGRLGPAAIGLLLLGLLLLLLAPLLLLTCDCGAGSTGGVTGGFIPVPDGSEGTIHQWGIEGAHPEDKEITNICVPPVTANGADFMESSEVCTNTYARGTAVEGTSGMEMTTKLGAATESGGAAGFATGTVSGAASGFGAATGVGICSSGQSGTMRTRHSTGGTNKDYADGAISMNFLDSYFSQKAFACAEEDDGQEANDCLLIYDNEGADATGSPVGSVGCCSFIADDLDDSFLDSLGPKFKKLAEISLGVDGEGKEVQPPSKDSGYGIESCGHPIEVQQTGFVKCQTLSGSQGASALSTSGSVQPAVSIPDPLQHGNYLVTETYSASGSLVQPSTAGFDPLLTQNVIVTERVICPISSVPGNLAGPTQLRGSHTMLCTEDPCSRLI
PROCEDURE SUMMARY: inhibitors of anti-DSG3 scFv binding to DSG3, confirmation, biochemical, cherry pick 1, bead-based, flow cytometry (AID 588466);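 note: 100% = 2% DMSO vehicle and 0% = excess soluble DSG3 blocking control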
COND: Protein G beads with DSG3, scFv-GFP binding, at 10 µM, stronger effect = lower value
About 30 (1%) of roughly 2,100 compounds were called active. A selection follows.
MEASURED QUANTITY: binding response (% of DMSO) (%)
The figure you give is taken to be in %; do not add the unit.

Take a look at these entries with their results.
>>> df
                                   molecule  readout_unit  experimental_value
0  CCOC(=O)c1cccc(NC(=O)c2ccc3c(c2)C(=O)N(CC2CCCO2)C3=O)c1 (stereo unspecified)             %                 103
1  COc1cccc(C(=O)Nc2cc(-c3cn4cccnc4n3)ccc2C)c1             %                 102
2  CCOc1c(Br)cc(C(=O)Nc2cccc(S(=O)(=O)N3CCOCC3)c2)cc1OC             %                 102

Fill in the blank: the reported binding response (% of DMSO) of "Cc1ccc(NC(=O)Cc2ccc([N+](=O)[O-])cc2)c(Br)c1" is ____.
95.5

And then "CCc1nnc(NC(=O)CCN(c2ccc(C)cc2)S(=O)(=O)c2ccccc2)s1" , what is it?
103

----------
Here the recorded binding response (% of DMSO) is given for each entry.
SYSTEM UNDER TEST: Desmoglein-3 (Homo sapiens)
PROCEDURE SUMMARY: inhibitors of anti-DSG3 scFv binding to DSG3, confirmation, biochemical, cherry pick 1, bead-based, flow cytometry (AID 588466);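 note: 100% = 2% DMSO vehicle and 0% = excess soluble DSG3 blocking control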
COND: Protein G beads with DSG3, scFv-GFP binding, at 10 µM, stronger effect = lower value
Screen size: about 2,100 compounds; about 30 (1%) were called active. Only a sample is shown.
API: value field is a number in %; no unit string.

In [3]: df
Out[3]:
                                   compound  readout_unit  experimental_value
0  CC1C(=O)N2CCCc3cc(S(=O)(=O)N4CCC(C(N)=O)CC4)cc1c32 (stereo not given)             %                 104
1  COc1ccc(-n2c(SCC(=O)O)nc3sc4c(c3c2=O)CCCC4)cc1             %                 103
2  O=C(Nc1nc(-c2ccccc2)c(-c2ccccc2)s1)c1ccc(S(=O)(=O)N2CCCCC2)cc1             %                96.3

Missing value: binding response (% of DMSO), Desmoglein-3 (Homo sapiens), entry "CC(=O)Nc1ccc(C(=O)OCC(=O)c2ccc(S(=O)(=O)N3CCCCC3)cc2)cc1" . Fill in?
110

Cool, now "COc1ccc(CNC(=O)c2cnc(C)cn2)cc1"
101

Can you handle "COc1ccc2cc(C(=O)COC(=O)COc3ccc4c(C)cc(=O)oc4c3)ccc2c1" next?
91.2

Same lookup for "O=C(Nc1ccc(NS(=O)(=O)c2ccccc2)cc1)c1ccc(Cl)cc1" , please.
49.9

Also need "CC(=O)c1ccc(NC(=O)Cn2cnc(S(=O)(=O)N3CCc4ccccc43)c2)cc1" , thanks.
94.8

Let us now turn to "NS(=O)(=O)c1ccc(NC(=O)c2ccc(F)cc2F)c(NC(=O)c2ccc(F)cc2F)c1"
104

Now try "CC(=O)c1c(C)[nH]c(C(=O)NCc2ccc(Cl)cc2)c1C" .
105
